Parameter melting point: see the listing below.

CN(C)C/C=C/C(=O)Nc1ccc2ncc(NC(=O)Nc3ccc(Cl)c(C(F)(F)F)c3)nc2c1 : 217 to 220 °C
C=CC(=O)Nc1ccc2ncc(NC(=O)Nc3ccc(Cl)c(C(F)(F)F)c3)nc2c1 : 272 to 274 °C
C/C=C/C(=O)Nc1ccc2ncc(NC(=O)Nc3ccc(Cl)c(C(F)(F)F)c3)nc2c1 : 277 to 280 °C
C/C=C/C(=O)Nc1ccc2ncc(NC(=O)Nc3ccccc3)nc2c1 : 273 to 276 °C
O=C(CCl)Nc1ccc2ncc(NC(=O)Nc3ccccc3)nc2c1 : 249 to 252 °C

I am curious: what melting point value has been reported for N#CCC(=O)Nc1ccc2ncc(NC(=O)Nc3ccccc3)nc2c1 ?
238 to 241 °C

I am curious: what melting point value has been reported for C=CC(=O)Nc1ccc2ncc(NC(=O)Nc3cccc(C(F)(F)F)c3)nc2c1 ?
268 to 271 °C

I am curious: what melting point value has been reported for O=C(CCl)Nc1ccc2ncc(NC(=O)Nc3ccc(Cl)c(C(F)(F)F)c3)nc2c1 ?
253 to 255 °C

Source listed as paper PMC6327040.
